System: C2A
PROCEDURE_TEXT: qHTS profiling for inhibitors of Plasmodium falciparum proliferation (AID 504749); further: nearly all actives have a fitted effect of over 60% in size
CONDITION_NOTES: P. falciparum in erythrocytes, SYBR Green DNA, 72 h; series mostly up to 28.7 µM
Records with an inconclusive call do not appear. Active and inactive are the calls of the source. The call rests on the fitted dose curve; in most records, active means well fitted inhibition curve with a large enough effect; inconclusive means small, poorly fitted or top-dose-only effect; inactive means flat fitted curve, though single readings scatter.
Give your call using only these classes: y for active, n for inactive

Here are 3 compounds together with their reported answers.
>>> qualitative_label("CC(C)(C)OC(=O)c1ncn2c1[C@@H]1CCCN1C(=O)c1c(Br)cccc1-2")
"n"
>>> qualitative_label("CN1C(=O)CN=C(c2ccccc2)c2cc([N+](=O)[O-])ccc21")
"n"
>>> qualitative_label("CN(C)C(=S)SSC(=S)N(C)C")
"y"

Query compound follows.
Recorded test call requested for COc1ccc(C(=O)N2CCCC2=O)cc1
n

FYI, the data here is from PubChem BioAssay (NCATS).
